Tested on: KM12 colon
Assay: NCI tumour cell line growth inhibition, 48 h
Listed here are molecules together with their documented GI50.

C1=N[C@]23C(=N[C@H](N=C2NCc2ccco2)[C@]24N=CNC2=N[C@H]3N=C4NCc2ccco2)N1	> 100 µM
CCOC(=O)/C(=C/CC/C(C)=C/CC/C(C)=C/CCc1ccoc1)CC(=O)N1CCCCC1	4.59 µM
CNC(=O)c1cc(Oc2ccc3nc(NC(=O)Nc4ccc(CN5CCOCC5)c(C(F)(F)F)c4)sc3c2)ccn1	0.446 µM

Entry CN(C)c1ccc(C(=S)c2ccc(N(C)C)cc2)cc1 : reported GI50 = ?
3.88 µM

So what does the record say about GI50 for COc1ccc2[nH]c(Cl)c(/C=C3/C(=O)Nc4ccccc43)c2c1 ?
0.563 µM

// GI50 lookup, key: CCn1cnc(C[C@H](NC(=O)[C@H](CCCCNC(=O)Nc2cc(C(F)(F)F)cc(C(F)(F)F)c2)NC(=O)Nc2cc(C(F)(F)F)cc(C(F)(F)F)c2)C(=O)OC)c1
4.41 µM

---

Tested on: M19-MEL melanoma
Test: NCI tumour cell line growth inhibition, 48 h
Overview of reported TGI across a group of compounds:

These recorded examples may help you get a feel for the data.
Cc1ccccc1/C=C/c1csnn1	> 100 µM
CCOC(=O)c1oc2c(OC)ccc3c2c1CCC3	> 100 µM
CCN(CC)CC1CCCCN1CC(=O)N1c2cc(Cl)ccc2NC(=O)CC1C (stereo not drawn)	> 100 µM
COc1ccc(C(c2ccccc2C(=O)O)c2ccc(OC)c3ccccc23)c2ccccc12	27.6 µM
O=C(CCc1nc(=S)[nH][nH]1)Nc1cc(Cl)ccc1Cl	> 100 µM

Any idea what its TGI is? The compound is CCOC(=O)/C=C/n1c2ccccc2c(=O)c2cc(OC)ccc21
> 100 µM

Any idea what its TGI is? The compound is N#CCCN(CCC#N)c1ccc(/C=C(/NC(=O)c2cc([N+](=O)[O-])ccc2Cl)C(=O)N=[N+]=[N-])cc1
> 100 µM

Recorded TGI for Cc1ccc2nc(NC(=O)C(=O)C(C(=O)c3ccc4ccccc4c3)C3OC(=O)c4ccccc43)sc2c1 (stereo not drawn) , please?
32.6 µM

Recorded TGI of CCCCn1c(-c2ccccc2)cs/c1=N\N=C1C=C(C(C)(C)C)C(=O)C(C(C)(C)C)=C1 , please.
> 100 µM

---

Tested on: SR leukemia
Assay: NCI tumour cell line growth inhibition, 48 h
Reported TGI values are given for each entry in this list.

COc1ccc(-n2cc(-c3cc(OC)c(OC)c(OC)c3)nc2SCc2ccc(Cl)cc2)cc1OC	> 100 µM
N=c1c2sc3nc4ccccc4n3c2ncn1Cc1ccccc1	> 100 µM
N#C/C(=C\c1ccc(O)c(O)c1)C(=O)NCc1ccc(C(F)(F)F)cc1	6 µM
COC(=O)[C@H](CNC(=O)/C=C/c1ccc(OC(C)=O)c(OC(C)=O)c1)NC(=O)/C=C/c1ccc(OC(C)=O)c(OC(C)=O)c1	> 100 µM
N#CCCN(CCC#N)c1ccc(/C=C(/NC(=O)c2cc([N+](=O)[O-])ccc2Cl)C(=O)N=[N+]=[N-])cc1	> 100 µM
c1ccc(-c2csc3c2-n2cccc2C3N2CCCC2)cc1 (centres undefined)	> 100 µM

Look at this molecule and give its reported TGI. Cc1nnc(C[C@@H]2C=C(c3ccc(Cl)cc3)c3ccccc3-n3c(C)nnc32)o1
> 70.6 µM

Given Oc1ccc2ccccc2c1CCc1c(O)ccc2ccccc12 , state its recorded TGI.
32.6 µM

Name the reported TGI value associated with the molecule Cc1cccc2c(C3=C(c4cn(C)c5ccccc45)C(=O)NC3=O)cn(C)c12
> 25 µM
